Can you tell me TGI for the items I'm about to list?
Test system: MALME-3M melanoma
Assay: NCI tumour cell line growth inhibition, 48 h
Unit µM implied. Number only.

Inquiry: Name the recorded TGI of the item O=C(/C=C/C12c3ccccc3C(c3ccccc31)C1C(=O)NC(=O)C12)c1ccco1 (stereo unspecified) in your answer.
Reply text: 6.72

Inquiry: Name the recorded TGI of the item CC(C)[Si](OCC/C=C/C1CCC(=O)C1C(O)C1CCCCC1)(C(C)C)C(C)C (stereo unspecified) in your answer.
Reply text: 29.1

Inquiry: Name the recorded TGI of the item O=C1OC(c2ccccc2)(c2ccccc2)CC1CN1CCOCC1 (stereo unspecified) in your answer.
Reply text: 26.6

Inquiry: Name the recorded TGI of the item Nc1nc(F)nc2c1ncn2C1OC(COP(=O)(O)O)C(O)C1O (stereo unspecified) in your answer.
Reply text: 254

Inquiry: Name the recorded TGI of the item c1ccc2c(NCCCCCCCCNc3cccc4ccccc34)cccc2c1 in your answer.
Reply text: 46.5

Inquiry: Name the recorded TGI of the item COc1c(C(CC(C)C)OC(C)=O)ccc2c1C(=O)OCc1cc(C)cc(O)c1O2 (stereo unspecified) in your answer.
Reply text: 29.8

Inquiry: Name the recorded TGI of the item COc1ccc2c(c1)C(=O)c1c-2c(N2CCN(C(=O)CN(C)C)CC2)nc2ccccc12 in your answer.
Reply text: 58.1

Inquiry: Name the recorded TGI of the item CCN(CC)CCCN1C(=O)c2c(c(C)c3c(oc4cc(O)ccc43)c2C)C1=O in your answer.
Reply text: 3.51

Inquiry: Name the recorded TGI of the item CN1CCN(CCCOc2ccc3ncnc(Nc4ccc(Oc5cccc(C(F)(F)F)c5)c(Cl)c4)c3c2)CC1 in your answer.
Reply text: 2.89

Inquiry: Name the recorded TGI of the item COc1ccc2cc(CNCCCN3CCN(CCCNCc4ccc5cc(OC)ccc5c4)CC3)ccc2c1 in your answer.
Reply text: 3.14

###

Tested on: SF-539 CNS
Experiment: NCI tumour cell line growth inhibition, 48 h; in the data active = GI50 below about 0.43 µM; inactive = the rest
Answer with one of the outcomes 1.0 (active), 0.0 (inactive)

Inquiry: Tell me the assay call for C[C@]12CC[C@H]3[C@@H](CC=C4C[C@@H](O)CC[C@@]43C)[C@@H]1C/C(=C\c1cccc(OCCCn3ccnc3)c1)[C@@H]2O please.
Reply text: 0.0

Inquiry: Tell me the assay call for COc1cc2c(cc1OCCCCCN1CCN(c3cc(=O)oc4c(C)c(OC)ccc34)CC1)N=C[C@@H]1CCCN1C2=O please.
Reply text: 1.0

Inquiry: Tell me the assay call for CCCCCCCCO/N=C\c1c2c(O)c3c(O)c(C)c4c(c3c1O)C(=O)C(C)(O/C=C\C(OC)C(C)C(OC(C)=O)C(C)C(O)C(C)C(O)C(C)/C=C\C=C(\C)C(=O)N2)O4 (stereo not drawn) please.
Reply text: 0.0

Inquiry: Tell me the assay call for N#C/C(=C\c1ccc(Cl)cc1)n1nnc2cc(F)c(F)cc21 please.
Reply text: 0.0

Inquiry: Tell me the assay call for Fc1ccc(Nc2ccc3cc(OCCCN4CCOCC4)ccc3n2)cc1F please.
Reply text: 0.0

Inquiry: Tell me the assay call for CN1CCN(Cc2ccc(NC(=O)c3[nH]ncc3Nc3ccnc4ccsc34)cc2)CC1 please.
Reply text: 0.0

Inquiry: Tell me the assay call for O=C(Nc1nc(-c2ccc(Cl)cc2)cs1)c1ccc(O)c(O)c1 please.
Reply text: 0.0

Inquiry: Tell me the assay call for O=C(Nc1cccc(-c2nc3ccccc3[nH]2)c1)c1cccc(NC(=O)c2ccco2)c1 please.
Reply text: 0.0

###

System: U251 CNS
Experiment: NCI tumour cell line growth inhibition, 48 h
Can you tell me TGI for the items I'm about to list?

Inquiry: # lookup: U251 CNS TGI, key = COc1ccc(-c2cc(=O)c3c(O)c(OC)c(O)cc3o2)cc1O
Reply text: > 100 µM

Inquiry: # lookup: U251 CNS TGI, key = COC(=O)C(Cc1ccccc1)C(=O)NC(CNC(=O)OCc1ccccc1)C(=O)OCc1ccccc1 (stereo not given)
Reply text: > 100 µM

Inquiry: # lookup: U251 CNS TGI, key = Cc1cccc(NC(=O)CSc2nnc(Cc3ccccc3)o2)c1
Reply text: > 100 µM

Inquiry: # lookup: U251 CNS TGI, key = C=C1C(C2(C)C=CC(=O)OC3(C)COC(=O)CC32)C(OC=O)C(OC(=O)C(O)C(C)CC)C2(C)C(c3ccoc3)CC(OC(C)=O)C12O (stereo not given)
Reply text: > 100 µM

Inquiry: # lookup: U251 CNS TGI, key = C#CCOC(=O)C(N)CS (stereo not given)
Reply text: > 100 µM

Inquiry: # lookup: U251 CNS TGI, key = Cc1cc2c(cc1Cl)SC(NNC(=O)c1ccncc1)=NS2(=O)=O
Reply text: > 10 µM

Inquiry: # lookup: U251 CNS TGI, key = O=C(Nc1nc(-c2ccc(Cl)cc2)cs1)c1ccc(O)c(O)c1
Reply text: 13.7 µM

Inquiry: # lookup: U251 CNS TGI, key = Nc1ccccc1C(=O)NNC(=O)c1ccccc1N
Reply text: > 100 µM

Inquiry: # lookup: U251 CNS TGI, key = CCOC(=O)C1=C(C)C2C3C(=O)NC(=O)C3C1(C)C1C(=O)NC(=O)C21 (stereo not given)
Reply text: > 100 µM

Inquiry: # lookup: U251 CNS TGI, key = CN(C)c1ccc2[nH]c(O)c(C=Nc3ccc(S(N)(=O)=O)cc3)c2c1
Reply text: > 25 µM

###

Test system: 786-0 renal
Experiment: NCI tumour cell line growth inhibition, 48 h; in the data active = GI50 below about 0.43 µM; inactive = the rest
Answer with one of the outcomes yes = active, no = inactive

Inquiry: Tell me the assay call for CCCN1C(=O)/C(=C/c2ccc(O)cc2)SC1=Nc1ccccc1 please.
Reply text: no

Inquiry: Tell me the assay call for CCOC(=O)c1ccc2[nH]c(Cc3[nH]c4ccc(C(=O)OCC)cc4c3C)c(C)c2c1 please.
Reply text: no

Inquiry: Tell me the assay call for C[C@@H](Oc1cc(-c2cnn(C3CC4(CCNCC4)C3)c2)cnc1N)c1c(F)ccc(Cl)c1Cl please.
Reply text: no

Inquiry: Tell me the assay call for CCC[C@H](Nc1nc(-c2ccc(NC(=O)NCC)c(OC)c2)ncc1C)c1cccnc1 please.
Reply text: yes

Inquiry: Tell me the assay call for COc1cc2c3c(n(CCCn4ccnc4)c(=O)c2cc1OC)-c1ccccc1C3=O please.
Reply text: yes

Inquiry: Tell me the assay call for C=C1C(=O)O[C@H]2[C@H]1CC/C(Cn1cc(Cn3ccc4cc(Cl)ccc43)nn1)=C\CC[C@@]1(C)O[C@@H]21 please.
Reply text: no

Inquiry: Tell me the assay call for Cn1c(Cc2ccccc2)nc2cc3ccccc3cc21 please.
Reply text: no

Inquiry: Tell me the assay call for CCC(=O)Nc1ccc2c(c1)CN1C(=O)c3ccccc3C1=N2 please.
Reply text: no

Inquiry: Tell me the assay call for COc1cc(/C=C/C(=O)CC(=O)/C=C/c2ccc(OC(=O)CCNC34CC5CC(CC(C5)C3)C4)c(OC)c2)ccc1OC(=O)CCNC12CC3CC(CC(C3)C1)C2 please.
Reply text: no

Inquiry: Tell me the assay call for O=C1CN2CCC1C/C2=C\c1ccnc2c(Cl)cccc12 (stereo not given) please.
Reply text: no

Inquiry: Tell me the assay call for O=S(=O)(NCCNc1cc(-c2cn(-c3ccccc3)nc2-c2cccc(O)c2)ccn1)c1ccc(F)cc1 please.
Reply text: no

Inquiry: Tell me the assay call for Cc1c(N(C(=O)c2cc(-c3cc(Cl)ccc3C(=O)N3Cc4ccccc4C[C@H]3CN3CCOCC3)n(C)c2C)c2ccc(O)cc2)cc(C#N)n1C please.
Reply text: no

Inquiry: Tell me the assay call for Fc1ccc(Nc2ccc3cc(OCCCN4CCOCC4)ccc3n2)cc1F please.
Reply text: no

Inquiry: Tell me the assay call for O=[N+]([O-])c1ccccc1/C=C/C=C1c2ccccc2-c2ccccc21 please.
Reply text: no

Inquiry: Tell me the assay call for N#Cc1c(SCc2ccccc2)nc2[nH]c(=S)[nH]c(=S)c2c1-c1ccco1 please.
Reply text: no

###

Test system: MOLT-4 leukemia
Assay: NCI tumour cell line growth inhibition, 48 h
Parameter: TGI

Inquiry: Name the recorded TGI of the item O=C(CC1(O)C(=O)Nc2ccccc21)c1ccc(O)cc1O (stereo not drawn) in your answer.
Reply text: > 100 µM

Inquiry: Name the recorded TGI of the item O=C(c1cccs1)c1c(C(F)(F)F)n([O-])c2cc(C(F)(F)F)ccc2[n+]1=O in your answer.
Reply text: 0.231 µM

Inquiry: Name the recorded TGI of the item CCC[CH2][Sn]([CH2]CCC)([O]C(=O)c1cccc(F)c1F)[O][Sn]([CH2]CCC)([CH2]CCC)[O]C(=O)c1cccc(F)c1F in your answer.
Reply text: 0.821 µM

Inquiry: Name the recorded TGI of the item c1cc2[se][se]c3c4cccc5[se][se]c(c(c1)c23)c54 in your answer.
Reply text: > 100 µM

Inquiry: Name the recorded TGI of the item COc1ccccc1NC(=S)Nc1cccc(C)n1 in your answer.
Reply text: > 100 µM

Inquiry: Name the recorded TGI of the item O=C1CC(c2ccccc2)NCN1 (stereo not drawn) in your answer.
Reply text: > 100 µM

Inquiry: Name the recorded TGI of the item O=C(O)C(Cc1ccccc1)N1C(=O)c2ccccc2C1=O (stereo not drawn) in your answer.
Reply text: > 100 µM

Inquiry: Name the recorded TGI of the item COc1ccc2c(c1)-c1c(c3ccccc3n1CCN1CCCCC1)CC2 in your answer.
Reply text: 47.4 µM

Inquiry: Name the recorded TGI of the item C/C(=C\c1csc(C)n1)[C@@H]1C[C@@H]2O[C@]2(C)CCC[C@H](C)[C@H](O)[C@@H](C)C(=O)C(C)(C)[C@@H](O)CC(=O)O1 (tested in a mixture with another compound) in your answer.
Reply text: > 0.307 µM

Inquiry: Name the recorded TGI of the item CC1(C)OC(=O)C=C(O)O1.CC1(C)OC(=O)C=C(O)O1.CCO.Oc1ccc2c(c1)CCC2.[Ti] in your answer.
Reply text: > 100 µM

Inquiry: Name the recorded TGI of the item Cc1cc(S(=O)(=O)/N=C(\N)n2nc(C)c(C)c2C)c(SCc2ccccc2)cc1Cl in your answer.
Reply text: > 100 µM

Inquiry: Name the recorded TGI of the item COCC1OCCN1C (stereo not drawn) in your answer.
Reply text: > 100 µM

Inquiry: Name the recorded TGI of the item O=C(Nc1cccc(-c2nc3ccccc3[nH]2)c1)c1cccc(NC(=O)c2ccco2)c1 in your answer.
Reply text: 12 µM
